Values from ChEMBL document CHEMBL1149372

Please provide measured pIC50 for the entries that follow.
Molecular target: Aurora kinase A (Homo sapiens, UniProt O14965)
Sequence (O14965 whole entry): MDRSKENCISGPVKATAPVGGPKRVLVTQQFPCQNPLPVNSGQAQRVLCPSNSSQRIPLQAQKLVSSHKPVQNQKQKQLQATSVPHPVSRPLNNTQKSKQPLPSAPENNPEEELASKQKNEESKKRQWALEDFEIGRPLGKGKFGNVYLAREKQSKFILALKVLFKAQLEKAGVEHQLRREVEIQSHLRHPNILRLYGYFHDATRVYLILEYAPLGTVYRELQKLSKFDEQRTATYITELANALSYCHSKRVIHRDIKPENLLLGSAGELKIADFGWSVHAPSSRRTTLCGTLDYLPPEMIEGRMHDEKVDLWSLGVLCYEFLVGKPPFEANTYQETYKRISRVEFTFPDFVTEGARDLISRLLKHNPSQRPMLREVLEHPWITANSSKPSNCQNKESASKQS
Numbers only, as −log10 of the molar value.

In [3]: df
Out[3]:
                            smiles_notation  attribute_measured  observed_value
0  COc1cc2c(Nc3ncc(CC(=O)Nc4cccc(F)c4)o3)ncnc2cc1OCCCN1CCOCC1               pIC50            6.33

Please go through the list and note pIC50 for each molecule.
1. COCCOc1cc2ncnc(Nc3ncc(CC(=O)Nc4cccc(F)c4)s3)c2cc1OC
2. CCCCc1cnc(Nc2ncnc3cc(OCCCN4CCOCC4)c(OC)cc23)s1

Ans.
1. 9.00
2. 8.22
